Test system: Escherichia coli TOP10
Assay: shrunken log2 fold change of peptide-encoding DNA abundance (4.5 h post-induction vs induction); higher = less antimicrobial activity (less host growth inhibition)
Details: time post-induction: 4.5 h; library: site-saturation at positions 5, 18, 19, 20
ASSAY_METRIC: shrunken log2 fold change
Numbers only.

Solved cases (5 shown):
RRIRIRPPRLPRPRPRPINHPRP = -0.683
RRIRGRPPRLPRPRPRPPEIPRP = 0.851
RRIRPRPPRLPRPRPRPMGYPRP = -0.0838
RRIRDRPPRLPRPRPRPVWFPRP = 1.26
RRIRDRPPRLPRPRPRPYRVPRP = -0.0135

For each of the sequences below, state shrunken log2 fold change.
1. RRIRFRPPRLPRPRPRPYDIPRP
2. RRIRVRPPRLPRPRPRPYHFPRP
3. RRIRERPPRLPRPRPRPYIVPRP
4. RRIRARPPRLPRPRPRPMHMPRP
5. RRIRNRPPRLPRPRPRPDTSPRP

[out]
-0.0365
-0.111
0.00789
-0.0568
-0.0648

====

Could you please report measured shrunken log2 fold change for the items listed next?
Tested on: Escherichia coli TOP10
Experiment: shrunken log2 fold change of peptide-encoding DNA abundance (4.5 h post-induction vs induction); higher = less antimicrobial activity (less host growth inhibition)
Details: time post-induction: 4.5 h; library: site-saturation at positions 5, 18, 19, 20
Answers are plain numbers.

Some sequences with recorded shrunken log2 fold change:
RRIRNRPPRLPRPRPRPTPNPRP = 0.185
RRIRERPPRLPRPRPRPKPWPRP = 0.287
RRIRQRPPRLPRPRPRPSHFPRP = 0.0685
RRIRVRPPRLPRPRPRPVYGPRP = -0.167
RRIRYRPPRLPRPRPRPPEQPRP = 0.357

Please supply shrunken log2 fold change for each of the following items, keeping them in order.
1. RRIRIRPPRLPRPRPRPYAFPRP
2. RRIRIRPPRLPRPRPRPVSLPRP
3. RRIRVRPPRLPRPRPRPMSEPRP
4. RRIRRRPPRLPRPRPRPRQEPRP
5. RRIRIRPPRLPRPRPRPKWSPRP

[out]
1: -1.1; 2: -0.147; 3: 0.0558; 4: 0.123; 5: 0.107

====

Tested on: Escherichia coli TOP10
Assay: shrunken log2 fold change of peptide-encoding DNA abundance (4.5 h post-induction vs induction); higher = less antimicrobial activity (less host growth inhibition)
Conditions: time post-induction: 4.5 h; library: site-saturation at positions 5, 18, 19, 20
# cutoff -0.05 applies to shrunken log2 fold change; >= gives label 1, < gives label 0

Reference set (3 entries):
RRIRTRPPRLPRPRPRPPAVPRP = label 1
RRIRDRPPRLPRPRPRPIVSPRP = label 1
RRIRWRPPRLPRPRPRPFISPRP = label 0

Now turn to the next sequence.
[in] Could you tell me if the measured shrunken log2 fold change of `RRIRPRPPRLPRPRPRPAQQPRP` reaches -0.05 or more?
[out] label 1

====

Test system: Escherichia coli TOP10;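 further: peptides expressed intracellularly from a pBAD plasmid library in pooled LB shake-flask culture, induced with 0.3% L-arabinose, DNA abundance read by NGS, three biological replicates, DESeq2 with apeglm shrinkage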
Test: shrunken log2 fold change of peptide-encoding DNA abundance (4.5 h post-induction vs induction); higher = less antimicrobial activity (less host growth inhibition)
Settings: time post-induction: 4.5 h; library: site-saturation at positions 5, 18, 19, 20
Please respond with reported shrunken log2 fold change for every item in the list.
Give bare numbers.

RRIRHRPPRLPRPRPRPHHHPRP = -1

# batch: return shrunken log2 fold change for each of the 5 sequences below
1. RRIRARPPRLPRPRPRPHKSPRP
2. RRIRIRPPRLPRPRPRPASMPRP
3. RRIRARPPRLPRPRPRPAQFPRP
4. RRIRLRPPRLPRPRPRPKFMPRP
5. RRIRHRPPRLPRPRPRPNMRPRP

[out]
0.42
-0.281
0.509
0.149
0.0719

Hi, could you look up shrunken log2 fold change for each item in my list?
1. RRIRERPPRLPRPRPRPWLFPRP
2. RRIRTRPPRLPRPRPRPKPEPRP
3. RRIRVRPPRLPRPRPRPWVKPRP
4. RRIRQRPPRLPRPRPRPQKWPRP
5. RRIRLRPPRLPRPRPRPPGNPRP

[out]
-0.0723
0.0154
-0.235
0.0876
0.303

Each sequence below has a recorded value; state its shrunken log2 fold change.
1. RRIRPRPPRLPRPRPRPERFPRP
2. RRIRCRPPRLPRPRPRPKQCPRP
3. RRIRLRPPRLPRPRPRPFDFPRP
4. RRIRFRPPRLPRPRPRPLHPPRP
5. RRIRYRPPRLPRPRPRPMPPPRP

[out]
-0.0264
0.269
-0.281
-0.0197
-0.331

Count: 5. Required value per item: shrunken log2 fold change.
1. RRIRGRPPRLPRPRPRPFQQPRP
2. RRIRMRPPRLPRPRPRPCIYPRP
3. RRIRFRPPRLPRPRPRPYWSPRP
4. RRIRDRPPRLPRPRPRPHNQPRP
5. RRIRSRPPRLPRPRPRPITAPRP

[out]
1: -0.0372; 2: 0.0933; 3: -0.428; 4: -0.398; 5: -0.0161
